Source listed as patent US20150080466A1.

- TARGET OR TEST SYSTEM: FPR2 (Homo sapiens)
- ASSAY PROCEDURE: Compound-induced calcium activity on FLIPR Tetra in CHO-Gα16 cells stably expressing FPRL1
- MEASUREMENT PARAMETERS: tested at 0.61 to 10,000 nM, read-out: FPR2 Ga16-CHO EC50
pEC50: −log10 of the molar value.
Class TRUE: pEC50 at least 6. Class FALSE: pEC50 below 6.

COMPOUND | TARGET OR TEST SYSTEM | ANSWER LABEL
COC(=O)CCNC(=O)CCc1ccccc1NC(=O)Nc1ccc(Br)cc1 [Compound 3] | FPR2 (Homo sapiens) | TRUE
COC(=O)CNC(=O)CCc1ccccc1NC(=O)Nc1ccc(Br)cc1 [Compound 6] | FPR2 (Homo sapiens) | TRUE
O=C(O)CCNC(=O)CCc1ccccc1NC(=O)Nc1ccc(Br)cc1 [Compound 5] | FPR2 (Homo sapiens) | TRUE
O=C(O)CNC(=O)CCc1ccccc1NC(=O)Nc1ccc(Br)cc1 [Compound 7] | FPR2 (Homo sapiens) | TRUE
O=C(O)CCCNC(=O)CCc1ccccc1NC(=O)Nc1ccc(Br)cc1 [Compound 4] | FPR2 (Homo sapiens) | FALSE

* * *

- TARGET OR TEST SYSTEM: FPR2 (Homo sapiens)
- Construct: expressed in transfected cells
- Sequence (P25090 1-351): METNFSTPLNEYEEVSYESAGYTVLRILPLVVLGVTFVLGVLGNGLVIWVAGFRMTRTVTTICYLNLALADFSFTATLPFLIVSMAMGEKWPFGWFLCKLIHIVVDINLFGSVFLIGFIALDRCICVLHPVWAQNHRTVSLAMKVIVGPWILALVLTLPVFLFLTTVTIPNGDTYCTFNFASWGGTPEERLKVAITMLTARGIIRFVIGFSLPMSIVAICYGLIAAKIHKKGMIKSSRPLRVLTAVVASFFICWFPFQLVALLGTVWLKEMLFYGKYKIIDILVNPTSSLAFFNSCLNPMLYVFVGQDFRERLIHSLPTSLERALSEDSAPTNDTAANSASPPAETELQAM
- ASSAY PROCEDURE: Compound-induced calcium activity on FLIPR Tetra in CHO-Gα16 cells stably expressing FPRL1
- Type: cell-based
- MEASUREMENT PARAMETERS: relative efficacy
- Procedure: CHO-Gα16 cells stably expressing FPRL1 were cultured in (F12, 10% FBS, 1% PSA, 400 μg/ml geneticin and 50 μg/ml hygromycin) and HEK-Gqi5 cells stable expressing FPR1 were cultured in (DMEM high glucose, 10% FBS, 1% PSA, 400 μg/ml geneticin and 50 μg/ml hygromycin). In general, the day before the experiment, 18,000 cells/well were plated in a 384-well clear bottom poly-d-lysine coated plate. […] Results are expressed as EC50 (nM) and efficacy values.
MEASURED METRIC: FPR2 Ga16-CHO (Rel. eff.)

COMPOUND | MEASURED METRIC | RECORDED VALUE
COC(=O)CCNC(=O)CCc1ccccc1NC(=O)Nc1ccc(Br)cc1 | FPR2 Ga16-CHO (Rel. eff.) | (1.00)
O=C(O)CCNC(=O)CCc1ccccc1NC(=O)Nc1ccc(Br)cc1 | FPR2 Ga16-CHO (Rel. eff.) | (1.00)
O=C(O)CCc1ccccc1NC(=O)Nc1ccc(Br)cc1 | FPR2 Ga16-CHO (Rel. eff.) | (1.00)
